Provide the reported HUT78 Adhesion IC50 of each item.
- system: human alpha4beta7 (human, UniProt P13612 34-1032; P26010 20-798)
- Sequence (P13612 34-1032, chain 1 of 2): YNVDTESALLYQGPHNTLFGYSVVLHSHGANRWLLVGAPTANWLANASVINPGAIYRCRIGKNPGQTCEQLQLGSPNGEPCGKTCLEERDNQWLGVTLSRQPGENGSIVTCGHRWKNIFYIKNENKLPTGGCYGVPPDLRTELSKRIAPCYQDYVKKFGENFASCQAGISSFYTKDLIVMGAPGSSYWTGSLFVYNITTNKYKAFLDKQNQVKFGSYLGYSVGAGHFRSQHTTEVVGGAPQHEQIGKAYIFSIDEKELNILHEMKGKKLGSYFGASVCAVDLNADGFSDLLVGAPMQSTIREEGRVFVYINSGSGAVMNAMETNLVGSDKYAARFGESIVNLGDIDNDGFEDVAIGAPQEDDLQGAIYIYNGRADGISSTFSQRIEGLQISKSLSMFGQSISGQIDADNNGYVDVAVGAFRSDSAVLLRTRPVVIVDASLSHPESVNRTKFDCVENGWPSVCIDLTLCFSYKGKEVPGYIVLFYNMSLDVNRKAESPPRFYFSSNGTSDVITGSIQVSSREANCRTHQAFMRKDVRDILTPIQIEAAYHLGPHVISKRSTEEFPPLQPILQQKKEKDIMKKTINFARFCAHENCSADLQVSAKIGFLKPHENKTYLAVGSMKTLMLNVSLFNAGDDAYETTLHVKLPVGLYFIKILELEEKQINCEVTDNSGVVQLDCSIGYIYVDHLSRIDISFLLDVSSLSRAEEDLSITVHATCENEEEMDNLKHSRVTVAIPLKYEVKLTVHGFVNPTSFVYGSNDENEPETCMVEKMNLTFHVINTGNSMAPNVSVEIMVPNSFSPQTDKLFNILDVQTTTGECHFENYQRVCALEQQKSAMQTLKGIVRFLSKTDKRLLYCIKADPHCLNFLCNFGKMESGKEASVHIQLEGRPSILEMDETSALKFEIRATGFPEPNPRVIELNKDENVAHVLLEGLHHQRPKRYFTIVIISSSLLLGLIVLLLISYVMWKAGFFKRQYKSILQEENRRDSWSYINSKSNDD
- Sequence (P26010 20-798, chain 2 of 2): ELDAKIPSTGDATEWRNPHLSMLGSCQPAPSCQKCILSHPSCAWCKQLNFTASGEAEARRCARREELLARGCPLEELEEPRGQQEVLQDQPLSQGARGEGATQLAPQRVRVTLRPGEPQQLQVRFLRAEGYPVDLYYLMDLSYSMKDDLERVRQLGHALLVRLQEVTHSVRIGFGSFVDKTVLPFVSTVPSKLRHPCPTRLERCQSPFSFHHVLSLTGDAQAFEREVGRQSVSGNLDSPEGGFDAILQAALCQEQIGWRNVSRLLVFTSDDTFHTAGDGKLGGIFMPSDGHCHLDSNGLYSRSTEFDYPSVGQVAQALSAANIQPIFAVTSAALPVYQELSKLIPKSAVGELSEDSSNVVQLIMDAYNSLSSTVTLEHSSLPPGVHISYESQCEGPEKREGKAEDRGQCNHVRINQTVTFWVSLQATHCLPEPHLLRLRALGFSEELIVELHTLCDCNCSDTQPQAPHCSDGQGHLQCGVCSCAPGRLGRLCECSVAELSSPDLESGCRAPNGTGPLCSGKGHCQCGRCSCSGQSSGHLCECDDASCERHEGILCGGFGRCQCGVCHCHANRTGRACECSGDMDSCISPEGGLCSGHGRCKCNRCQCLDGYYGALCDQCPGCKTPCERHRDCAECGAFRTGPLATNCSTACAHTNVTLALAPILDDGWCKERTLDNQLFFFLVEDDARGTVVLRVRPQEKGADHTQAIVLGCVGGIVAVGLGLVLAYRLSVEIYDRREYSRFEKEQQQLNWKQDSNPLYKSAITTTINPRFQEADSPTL
- test-method-notes: cell-based or functional assay
Give bare numbers, in ng/mL.

Examples with answers:
>>> recorded_measurement("19G6 (antibody, V domains shown, Fully human monoclonal from XenoMouse (human IgG2 or IgG4); kappa light chain; also called 19G6K; 19G6H) VH: QVQLVESGGDLVKPGGSLRLSCAASGFTFSDYYMSWIRQAPGKGLEWISYISSSGSTMYYADSVKGRFTISRVNAKNSLYLQMNSLRAEDTAVYYCARDRSSGLVSFDYWGQGTLVTVSS VL: DIQMTQSPSSLSASVGDRVTISCQASQDINTYLNWYQQKPGKVPKLLIYDASNLETGVPSRFSGSGSGTDFTFTISGLQPEDIATYYCQQFDNLPITFGQGTRLEIK")
12.2
>>> recorded_measurement("1A10 (antibody, V domains shown, Fully human monoclonal from XenoMouse XG2kl or XG4kl mice (human IgG2 or IgG4); kappa light chain; also called 1A10K; 1A10H) VH: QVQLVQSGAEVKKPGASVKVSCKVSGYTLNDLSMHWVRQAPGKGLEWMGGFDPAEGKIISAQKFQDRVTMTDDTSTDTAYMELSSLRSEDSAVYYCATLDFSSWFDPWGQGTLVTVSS VL: DIQMTQSPSSVSASVGDRVTITCRASQGVSSWLAWYQQKPGMAPKLLIYAASILQSGVPSRFSGSGSGTDFTLTISSLQPEDFATYYCQQANSFPWTFGQGTKVEIK")
6.1
>>> recorded_measurement("3A5 (antibody, V domains shown, Fully human monoclonal from XenoMouse (human IgG2 or IgG4); kappa light chain; also called 3A5K; 3A5H) VH: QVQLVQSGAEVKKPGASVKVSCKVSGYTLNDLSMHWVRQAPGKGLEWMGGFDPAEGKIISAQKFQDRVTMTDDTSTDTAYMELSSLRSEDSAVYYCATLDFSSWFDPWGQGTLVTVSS VL: DIQMTQSPSSVSASVGDRVTITCRASQGVISWLAWYQQKPGMAPKLLIYAASILQSGVPSRFSGSGSGTDFTLTISSLQPEDFATYYCQQANSFPWTFGQGTNVEIK")
7.5

Please give HUT78 Adhesion IC50, item by item, for the list that follows.
1. 26H3 (antibody, V domains shown, Fully human monoclonal from XenoMouse (human IgG2 or IgG4); kappa light chain; also called 26H3K; 26H3H) VH: EVQLVQSGAEVKKPGESLKISCKGSGYSFTGYWIGWVRQMPGKGLEWMGIIYPYDSDTRYSPSFQGQVTISADKSINTAYLQWSSLKASDTAMFYCASHRLWLGEFPGPLNIWGQGTMVTVSS VL: DIQMTQSPSSLSASVGDRVTITCQASQDISNYLNWYQQKPGKAPKLLIYDASNLETGVPSRFSGSGSGTDFTFTINSLQPEDIATYFCQQYDNLPCSFGQGTKLEIK
2. 17C8 (antibody, V domains shown, Fully human monoclonal from XenoMouse (human IgG2 or IgG4); kappa light chain; also called 17C8K; 17C8H) VH: QVQLVESGGGLVKPGGSLRLSCAASGFTFSDYYMSWIRQAPGKGLEWLSYISNSGSAMYYADSVKGRFTISRDNARNSLYLQMNSLRAEDTAVYYCAREYSSGWFFFESWGQGTLVTVSS VL: EIVMTQSPATLSVSPGERATLSCRASQSVSSNLVWYQQKPGQAPRLLIYGASTRATGIPARFSGSGSGTDFTLTISSLQSEDFAVYYCQQYDDWPPLTFGGGTTVEIK

Reply text:
1: 8.9; 2: 6.8

Attribution: patent US20100254975A1
